All figures here come from PubChem BioAssay (NCI).

Assign TGI to each entry below.
test system: T-47D breast; assay: NCI tumour cell line growth inhibition, 48 h

Given the compound CC1(C)CN=C(Nc2ccc(Cl)cc2)S1 , what is its reported TGI?
> 100 µM

Given the compound CCOC(=O)c1cc2c([nH]1)C(=O)CC1=C2CCN1Cc1ccccc1 , what is its reported TGI?
6.77 µM

Given the compound CC1(C)C(=S)C(C)(C)C1=S , what is its reported TGI?
> 100 µM

Given the compound CN1CCN(Cc2ccc(NC(=O)c3ccc(C#N)c(C#Cc4cnc(N)c5ncccc45)c3)cc2C(F)(F)F)CC1 , what is its reported TGI?
> 100 µM

Given the compound C[C@H]1CC[C@@H]2[C@@H](C)[C@H]3[C@H](C[C@H]4[C@@H]5CC=C6C[C@@H](O)CC[C@]6(C)[C@H]5C[C@H](O)[C@]34C)N2C1 , what is its reported TGI?
> 100 µM

Given the compound C#CCNC(=O)CC[C@]1(C)[C@H]2CC[C@@H]3[C@@H]([C@@](C)(O)CCC=C(C)C)CC[C@@]3(C)[C@]2(C)CC[C@H]1C(=C)C , what is its reported TGI?
> 100 µM

Given the compound CCn1c(=O)ccc2ccc(N(CCO)CCO)nc21 , what is its reported TGI?
> 100 µM

Given the compound Cc1cc2c(cc1C)[n+](=O)c(C(=O)N1CCN(c3ccc([N+](=O)[O-])cc3)CC1)c(C)n2[O-] , what is its reported TGI?
> 100 µM

Given the compound COc1ccc(Cc2cnc(NC(=O)c3sc4ccccc4c3Cl)s2)cc1 , what is its reported TGI?
> 100 µM

Given the compound c1ccc2c3c([nH]c2c1)C1c2[nH]c4ccccc4c2CCN1CC3 , what is its reported TGI?
37.1 µM

Given the compound COC(=O)c1ccc([N+](=O)[O-])c(O)c1 , what is its reported TGI?
> 100 µM

Given the compound O=c1cc(-c2ccccc2)oc2ccc(Oc3nnnn3-c3ccccc3)cc12 , what is its reported TGI?
> 100 µM

Given the compound COc1ccc(-n2c(C)nc3ccc(NC4OCC(O)C(O)C4O)cc3c2=O)cc1 (configuration not stated) , what is its reported TGI?
> 100 µM

Given the compound CO/N=C1/c2sccc2[C@H](NC(=O)C(F)(F)F)[C@@H]1O , what is its reported TGI?
> 100 µM

Given the compound CC[C@@H](C(=O)[C@@H](C)[C@@H](O)[C@H](C)[C@@H]1O[C@@H]([C@@H](CC)C(=O)O)CC[C@@H]1C)[C@H]1OC2(C=C[C@@H](O)[C@]3(CC[C@@](C)([C@H]4CC[C@](O)(CC)[C@H](C)O4)O3)O2)[C@H](C)C[C@@H]1C (some centres not stated) , what is its reported TGI?
10.4 µM

Given the compound CCc1c(Cl)nc(Cl)nc1Cl , what is its reported TGI?
1.7 µM

Given the compound CCOC(=O)c1c(C)n2c(=O)cc(C)c3c(OC(C)=O)c(OC(C)=O)cc1c32 , what is its reported TGI?
> 40.9 µM

Given the compound CCCN(CCCCN1C(=O)c2ccccc2C1=O)CC1COc2ccccc2O1 (configuration not stated) , what is its reported TGI?
> 100 µM

Given the compound CC1OC(OC2C(O)COC(OC3C(C)OC(OC4C(OC(=O)[C@]56CCC(C)(C)C[C@@H]5C5=CCC7[C@@]8(C)C[C@H](O)[C@H](OC9OC(CO)C(O)C(OC%10OC(CO)C(O)C(O)C%10O)C9O)[C@@](C)(CO)[C@@H]8CC[C@@]7(C)[C@]5(C)CC6)OCC(O)C4O)C(O)C3OC3OCC(O)C(O)C3O)C2O)C(O)C(O)C1O (some centres not stated) , what is its reported TGI?
14 µM

Given the compound C#CCOC(=O)C(N)CSSCC(N)C(=O)O (configuration not stated) , what is its reported TGI?
> 100 µM

Given the compound CN(C)CCCNc1nnc(NCCCN(C)C)c2c(=O)c3sccc3[nH]c12 , what is its reported TGI?
> 51.5 µM

Given the compound Oc1cc(O)c2c(=S)cc(-c3ccc(Cl)cc3)oc2c1 , what is its reported TGI?
0.547 µM

Given the compound COC(=O)NN=C(c1ccc(Cl)cc1)c1ccc(Cl)cc1 , what is its reported TGI?
> 100 µM

Given the compound COc1ccc(C(C2C(=O)N(C)C(=O)N(C)C2=O)C(F)(F)C(=O)N(C)C)cc1 (configuration not stated) , what is its reported TGI?
> 100 µM

Given the compound CC(C)[Si](OC1=C(C(=O)N(C)c2ccccc2Cl)CCC1)(C(C)C)C(C)C , what is its reported TGI?
47.1 µM

Given the compound COc1ccc(N2C(=O)/C(=C\c3cccc(Oc4ccccc4)c3)S(=O)(=O)C2c2ccccc2)cc1 (configuration not stated) , what is its reported TGI?
> 100 µM

Given the compound C=C(C)[C@@H]1CCC2=C[C@@H](OC2=O)[C@@H](C(=C)C)C(=O)/C=C(/C)C(=O)C1 , what is its reported TGI?
> 100 µM

Given the compound Cc1c(CCCl)c(N=[N+]=[N-])n2c(nc3ccccc32)c1C#N , what is its reported TGI?
3.18 µM

Given the compound COc1cc2c(cc1OC)C1(c3ccccc3)CN(C2)Cc2cc(OC)c(OC)cc21 , what is its reported TGI?
> 100 µM

Given the compound CC(C)N=C(NC#N)NS(=O)(=O)c1cnccc1Nc1ccc(Cl)cc1 , what is its reported TGI?
> 100 µM

Given the compound CN(C)CCCNc1nccc(-c2c(-c3ccc(F)cc3)nn3cc(C(F)(F)F)ccc23)n1 , what is its reported TGI?
> 25 µM

Given the compound Cc1ccc2[nH]c3[nH]c(=O)[nH]c(=O)c3c2c1 , what is its reported TGI?
> 100 µM

Given the compound CCOC(=O)C1=C(C)NC2SC(=O)/C(=C\c3ccccc3)N2C1c1ccccc1 (configuration not stated) , what is its reported TGI?
> 100 µM

Given the compound O=C1c2ccccc2-c2c1c1ccccc1c(=O)n2CCCN1CCN(CCCn2c3c(c4ccccc4c2=O)C(=O)c2ccccc2-3)CC1 , what is its reported TGI?
> 100 µM

Given the compound Nc1ccccc1NC(=O)c1ccc(CN2CCC/C(=C\c3cccc(Cl)c3)C2=O)cc1 , what is its reported TGI?
56.6 µM

Given the compound NC(=O)C(NC=O)c1ccccc1 (configuration not stated) , what is its reported TGI?
> 100 µM

Given the compound COC(=O)[C@H](CC(C)C)NC(=O)NC(=O)NC(=O)CI , what is its reported TGI?
7.03 µM
